# Test system: Setaria glauca (L.) Beauv.
# ASSAY_PROTOCOL: Bioassay of herbicidal activity in greenhouse (further screening)
# Assay type: in vivo
# TEST_PARAMETERS: post-emergence; dose 15 g a.i./hm^2
Kindly supply the reported Growth inhibition rate, Post-emergence treatment, Setaria glauca (L.) Beauv. values for the records listed here.
A complete answer gives the number followed by the unit.

Answered examples (4):
>  <COMPOUND>
Cn1c(C(F)(F)F)cc(=O)n(-c2cc(C3=NOC(C)(C(=O)OCC(F)(F)F)C3)c(Cl)cc2F)c1=O (centres unmarked) [Compound 396]

>  <OBSERVED>
55%

$$$$
>  <COMPOUND>
Cn1c(C(F)(F)F)cc(=O)n(-c2cc(C3=NOC(C)(C(=O)OCC4CCCO4)C3)c(Cl)cc2F)c1=O (centres unmarked) [Compound 398]

>  <OBSERVED>
95%

$$$$
>  <COMPOUND>
Cn1c(C(F)(F)F)cc(=O)n(-c2cc(C3=NOC(C)(COS(C)(=O)=O)C3)c(Cl)cc2F)c1=O (centres unmarked) [Compound 88]

>  <OBSERVED>
30%

$$$$
>  <COMPOUND>
CC(C)C(=O)OCC1(C)CC(c2cc(-n3c(=O)cc(C(F)(F)F)n(C)c3=O)c(F)cc2Cl)=NO1 (centres unmarked) [Compound 46]

>  <OBSERVED>
55%

$$$$

Given the compound CCOCCOC(=O)C1(C)CC(c2cc(-n3c(=O)cc(C(F)(F)F)n(C)c3=O)c(F)cc2Cl)=NO1 (centres unmarked) [Compound 15] , what is its reported Growth inhibition rate, Post-emergence treatment, Setaria glauca (L.) Beauv.?
98%
